These measurements were taken from patent US11608342B2.

Molecular target: PDE9 (Homo sapiens (Human), UniProt O76083)
Sequence (O76083 whole entry): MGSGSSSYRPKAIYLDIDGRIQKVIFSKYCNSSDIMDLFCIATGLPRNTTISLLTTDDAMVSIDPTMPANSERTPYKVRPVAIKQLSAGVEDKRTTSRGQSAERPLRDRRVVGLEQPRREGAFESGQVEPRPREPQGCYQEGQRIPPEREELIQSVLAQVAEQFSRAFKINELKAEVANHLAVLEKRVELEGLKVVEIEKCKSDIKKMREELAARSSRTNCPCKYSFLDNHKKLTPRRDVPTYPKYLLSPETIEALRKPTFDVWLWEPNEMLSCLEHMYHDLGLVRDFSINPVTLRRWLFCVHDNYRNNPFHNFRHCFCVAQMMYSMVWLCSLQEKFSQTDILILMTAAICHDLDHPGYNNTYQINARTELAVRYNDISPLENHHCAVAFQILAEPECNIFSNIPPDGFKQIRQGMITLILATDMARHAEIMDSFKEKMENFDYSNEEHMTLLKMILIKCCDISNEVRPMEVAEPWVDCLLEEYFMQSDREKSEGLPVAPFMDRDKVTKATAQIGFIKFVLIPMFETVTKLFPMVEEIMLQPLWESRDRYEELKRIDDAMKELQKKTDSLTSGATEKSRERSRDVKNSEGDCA
MEASURE NAME: pIC50
Hey, just a heads up that pIC50 is the negative log base 10 of the concentration in molar.

Task: Name the recorded pIC50 for C[C@@H]1CN(Cc2ncccn2)C[C@H]1c1cn2c(C3CCOCC3)ncc2c(=O)[nH]1 (single isomer, unassigned) [Compound (P3, enantiomer 1)] .
Result: 7.31
